- test_system: c-kit mutant D816V (Homo sapiens, UniProt P10721, D816V/DEL694-753)
- Construct: residues 551-934, kinase insertion domain residues 694-753 deleted; 6x-histidine (N); made in house; host or cells: E. coli Arctic Express (DE3) RIL (Stratagene)
- Sequence (P10721 with tags, fused parts or gaps DEL694-753/D816V): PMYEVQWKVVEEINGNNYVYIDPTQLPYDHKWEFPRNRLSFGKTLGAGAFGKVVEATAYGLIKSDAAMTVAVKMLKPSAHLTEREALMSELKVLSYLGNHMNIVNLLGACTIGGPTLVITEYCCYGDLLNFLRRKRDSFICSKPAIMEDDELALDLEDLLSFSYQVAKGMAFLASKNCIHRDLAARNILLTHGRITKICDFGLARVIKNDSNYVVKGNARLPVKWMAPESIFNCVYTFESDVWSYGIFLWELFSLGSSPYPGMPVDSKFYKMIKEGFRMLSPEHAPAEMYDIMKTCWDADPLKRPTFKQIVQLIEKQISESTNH
- test_summary: c-Kit mutant D816V biochemical assay, AlphaScreen
- condition_description: c-kit D816V biochemical inhibitory activity; read-out: Biochemical activity (IC50 μM) Kit D816V

structure_notation: Cc1cc2c(-c3ccc(NS(=O)(=O)c4ccc(F)cc4)cc3F)ncnc2[nH]1
IC50: 0.0001 to 1 µM
//
structure_notation: O=C(N1CC=C(c2cc3ncnc(-c4ccc(NS(=O)(=O)C5CC5)cc4)c3s2)CC1)N1CCOCC1
IC50: 0.0001 to 1 µM
//
structure_notation: O=C(NCc1cccc(F)c1)N1CCN(c2ncnc3[nH]ccc23)CC1
IC50: 10 to 200 µM
//
structure_notation: Cc1ccc(S(=O)(=O)Nc2cccc(-c3ncnc4[nH]c(-c5ccc(F)cc5)cc34)c2)cc1
IC50: 10 to 200 µM
//
structure_notation: COc1cccc(NC(=O)N2CCN(c3ncnc4[nH]c(-c5ccccc5)cc34)CC2)c1
IC50: 10 to 200 µM
//
structure_notation: C[C@H](NC(=O)N1CCN(c2ncnc3[nH]c(-c4cnn(C)c4)cc23)C[C@H]1C)c1ccc(F)cc1
IC50: 0.0001 to 1 µM
//
structure_notation: NS(=O)(=O)c1ccc(-c2ncnc3[nH]c(-c4cnc(C5CC5)nc4)cc23)cc1
IC50: 1 to 10 µM
//
structure_notation: C[C@@H]1CN(c2ncnc3cc(-c4ccc(F)cc4)sc23)CCN1C(=O)N[C@H](C)c1ccc(F)cc1
IC50: 1 to 10 µM
//
structure_notation: CCCc1ccc(S(=O)(=O)NC2CCN(c3ncnc4[nH]c(C)cc34)CC2)cc1
IC50: 1 to 10 µM
//
structure_notation: COc1ccc(S(=O)(=O)Nc2ccc(-c3ncnc4cc(OC)c(OCCCN5CCOCC5)cc34)c(F)c2)cc1
IC50: 0.0001 to 1 µM
//
structure_notation: COc1cccc(CNC(=O)N2CCN(c3ncnc4[nH]c(-c5ccc(F)cc5)cc34)CC2)n1
IC50: 1 to 10 µM
//
structure_notation: C[C@H]1CN(c2ncnc3[nH]c(-c4ccncc4)cc23)CCN1
IC50: 1 to 10 µM

---

IC50: recorded values
- test_system: c-kit kinase (Homo sapiens)
- Construct: The c-kit (or kinase domain thereof) is an active kinase in AlphaScreen; poly-Histidine tag (in-house protein only) (cleaved yes); host or cells: E. coli BL21(DE3)RIL, co-expressed with PTP1B
- test_summary: c-Kit biochemical assay, AlphaScreen, 10 μM ATP
- condition_description: c-kit biochemical inhibitory activity; read-out: Biochemical activity (IC50 μM) Kit
reported_metric: IC50

structure_notation: O=C(C1CCCCC1)N1CCN(c2ncnc3[nH]ccc23)CC1
assay_value: 10 to 200 µM

structure_notation: COc1ccc(S(=O)(=O)Nc2ccc(-c3ncnc4cc(OC)c(OCCCN5CCOCC5)cc34)c(F)c2)cc1
assay_value: 1 to 10 µM

structure_notation: Fc1ccc(-c2cc3c(-c4ccc(F)cc4)ncnc3[nH]2)cc1
assay_value: 0.0001 to 1 µM

structure_notation: Fc1ccc(-c2cc3c(-c4ccc(NCc5ccc(C(F)(F)F)nc5)nc4)ncnc3[nH]2)cc1
assay_value: 0.0001 to 1 µM

structure_notation: Cc1nn(C)cc1-c1cc2ncnc(N3CCN(C(=O)N[C@H](C)c4ccc(F)cc4)[C@H](C)C3)c2s1
assay_value: 1 to 10 µM

structure_notation: COc1ccc(NC(=O)NC2CCN(c3ncnc4[nH]ccc34)CC2)cc1
assay_value: 10 to 200 µM

structure_notation: COc1cccc([C@H](C)NC(=O)N2CC=C(c3ncnc4cc(-c5ccc(F)cc5)sc34)CC2)c1
assay_value: 1 to 10 µM

structure_notation: COc1cccc([C@@H](C)NC(=O)N2CCN(c3ncnc4cc(-c5cn(C)nc5C)sc34)C[C@H]2C)c1
assay_value: 10 to 200 µM

structure_notation: O=C(C1CCCC1)N1CCN(c2ncnc3[nH]ccc23)CC1
assay_value: 10 to 200 µM

structure_notation: [2H]C([2H])([2H])S(=O)(=O)Nc1ccc(-c2ncnc3cc(OCCCN4CCCCC4)c(OC)cc23)c(F)c1
assay_value: 1 to 10 µM

structure_notation: CCc1ccc(NC(=O)N2CCN(c3ncnc4[nH]ccc34)CC2)cc1
assay_value: 10 to 200 µM

structure_notation: Cc1nn(C)cc1-c1cc2ncnc(N3CCN(C(=O)N[C@@H](C)c4cccc(Cl)c4)[C@H](C)C3)c2s1
assay_value: 10 to 200 µM

structure_notation: Cc1ccc(S(=O)(=O)Nc2ccc(-c3cc4ncnc(N5CCN(C(=O)Nc6ccccc6)CC5)c4s3)cc2)cc1
assay_value: 10 to 200 µM

structure_notation: Cc1nc(-c2cccc(NC(=O)NC3CCN(c4ncnc5[nH]ccc45)CC3)c2)no1
assay_value: 10 to 200 µM

structure_notation: N#Cc1cccc(-c2cc3c(N4CCN(C(=O)NCc5ccc(F)cc5)CC4)ncnc3[nH]2)c1
assay_value: 10 to 200 µM

structure_notation: COc1cccc([C@H](C)NC(=O)N2CCN(c3ncnc4[nH]c(C#CC5CC5)cc34)CC2)c1
assay_value: 1 to 10 µM

structure_notation: Cc1cc2c(-c3ccc(NS(=O)(=O)c4ccc(F)cc4)cc3F)ncnc2[nH]1
assay_value: 1 to 10 µM

structure_notation: CCc1ccc(S(=O)(=O)NC2CCN(c3ncnc4[nH]c(-c5cn(C)nc5C)cc34)CC2)cc1
assay_value: 0.0001 to 1 µM

structure_notation: Fc1ccc(-c2cc3c(-c4ccncc4)ncnc3[nH]2)cc1
assay_value: 0.0001 to 1 µM

structure_notation: Cc1ccc(S(=O)(=O)Nc2ccc(-c3ncnc4cc(C5=CCNCC5)sc34)cc2)cc1
assay_value: 0.0001 to 1 µM

structure_notation: COc1ccc(-c2cc3c(N4CCN(C(=O)Nc5ccc(OC(F)(F)F)cc5)CC4)ncnc3[nH]2)cn1
assay_value: 0.0001 to 1 µM

---

- test_system: c-kit kinase (Homo sapiens, UniProt P10721)
- Construct: The c-kit (or kinase domain thereof) is an active kinase in AlphaScreen; poly-Histidine tag (in-house protein only) (cleaved yes); host or cells: E. coli BL21(DE3)RIL, co-expressed with PTP1B
- Sequence (P10721 26-976): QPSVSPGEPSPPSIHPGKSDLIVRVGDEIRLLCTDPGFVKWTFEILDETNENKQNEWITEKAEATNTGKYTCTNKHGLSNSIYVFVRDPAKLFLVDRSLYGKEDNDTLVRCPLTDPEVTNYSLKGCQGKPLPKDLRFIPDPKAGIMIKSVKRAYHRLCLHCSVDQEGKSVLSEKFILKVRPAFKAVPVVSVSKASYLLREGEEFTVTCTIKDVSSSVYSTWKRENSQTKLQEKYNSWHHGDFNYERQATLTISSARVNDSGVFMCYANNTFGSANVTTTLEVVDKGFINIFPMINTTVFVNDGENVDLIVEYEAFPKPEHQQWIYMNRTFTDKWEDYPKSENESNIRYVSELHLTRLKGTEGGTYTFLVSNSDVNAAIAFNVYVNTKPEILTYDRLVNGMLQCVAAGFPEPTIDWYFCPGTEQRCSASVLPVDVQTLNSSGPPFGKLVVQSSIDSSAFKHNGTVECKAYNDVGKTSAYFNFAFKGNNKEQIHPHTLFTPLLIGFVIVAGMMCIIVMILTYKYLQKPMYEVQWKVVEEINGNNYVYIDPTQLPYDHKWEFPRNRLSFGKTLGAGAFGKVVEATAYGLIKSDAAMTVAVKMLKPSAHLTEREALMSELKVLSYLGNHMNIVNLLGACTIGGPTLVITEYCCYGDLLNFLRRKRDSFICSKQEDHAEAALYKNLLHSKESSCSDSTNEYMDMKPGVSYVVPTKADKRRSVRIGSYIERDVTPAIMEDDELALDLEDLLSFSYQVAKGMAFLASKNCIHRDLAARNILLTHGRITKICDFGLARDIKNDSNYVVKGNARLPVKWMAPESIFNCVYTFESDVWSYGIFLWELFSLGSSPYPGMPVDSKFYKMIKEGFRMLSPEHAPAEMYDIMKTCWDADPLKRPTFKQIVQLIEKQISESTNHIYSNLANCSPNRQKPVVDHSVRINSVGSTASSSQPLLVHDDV
- test_summary: c-Kit biochemical assay, AlphaScreen, 10 μM ATP
- condition_description: c-kit biochemical inhibitory activity; read-out: Biochemical activity (IC50 μM) Kit
IC50: recorded values

molecule: CN(C)C(=O)c1cccc(-c2cc3c(N4CCN(C(=O)Nc5ccc(OC(F)(F)F)cc5)CC4)ncnc3[nH]2)c1 [P-0085]
test_system: c-kit kinase (Homo sapiens, UniProt P10721)
IC50: 0.0001 to 1 µM
//
molecule: Cc1ccc(NS(=O)(=O)c2ccc(-c3ncnc4[nH]c(-c5ccc(F)cc5)cc34)cc2)cc1 [P-0426]
test_system: c-kit kinase (Homo sapiens, UniProt P10721)
IC50: 10 to 200 µM
//
molecule: O=C(NCc1ccc(F)cc1)N1CCN(c2ncnc3[nH]cc(CC4CC4)c23)CC1 [P-0137]
test_system: c-kit kinase (Homo sapiens, UniProt P10721)
IC50: 10 to 200 µM
//
molecule: CCc1ccc(S(=O)(=O)Nc2ccc(-c3ncnc4[nH]c(C)cc34)cc2)cc1 [P-0315]
test_system: c-kit kinase (Homo sapiens, UniProt P10721)
IC50: 1 to 10 µM
//
molecule: Cc1cc2c(-c3ccc(NS(=O)(=O)c4ccc(Br)cc4)cc3)ncnc2[nH]1 [P-0318]
test_system: c-kit kinase (Homo sapiens, UniProt P10721)
IC50: 1 to 10 µM

---

- test_system: c-kit kinase (Homo sapiens)
- Construct: The c-kit (or kinase domain thereof) is an active kinase in AlphaScreen; poly-Histidine tag (in-house protein only) (cleaved yes); host or cells: E. coli BL21(DE3)RIL, co-expressed with PTP1B
- test_summary: c-Kit biochemical assay, AlphaScreen, 10 μM ATP
- condition_description: c-kit biochemical inhibitory activity; read-out: Biochemical activity (IC50 μM) Kit
IC50: recorded values

structure_notation: CS(=O)(=O)Nc1ccc(-c2cc3c(-c4ccc(NS(C)(=O)=O)cc4F)ncnc3[nH]2)c(F)c1
test_system: c-kit kinase (Homo sapiens)
IC50: 0.0001 to 1 µM

structure_notation: Cc1cc2c(N3CCN(C(=O)N[C@@H](C)c4cccc(Cl)c4)[C@H](C)C3)ncnc2[nH]1
test_system: c-kit kinase (Homo sapiens)
IC50: 1 to 10 µM

structure_notation: C[C@H](NC(=O)N1CCN(c2ncnc3[nH]c(-c4ccc(F)cc4)cc23)CC1(C)C)c1cccc(OC(F)F)c1
test_system: c-kit kinase (Homo sapiens)
IC50: 1 to 10 µM

structure_notation: Cc1cc2c(-c3ccc(NS(=O)(=O)c4ccc5c(c4)CCO5)cc3)ncnc2[nH]1
test_system: c-kit kinase (Homo sapiens)
IC50: 10 to 200 µM

structure_notation: C[C@@H]1CN(c2ncnc3[nH]c(-c4ccncc4)cc23)CCN1
test_system: c-kit kinase (Homo sapiens)
IC50: 10 to 200 µM

structure_notation: COc1ccc(S(=O)(=O)NC2CCN(c3ncnc4[nH]ccc34)CC2)cc1
test_system: c-kit kinase (Homo sapiens)
IC50: 10 to 200 µM
